Numbers sourced from ChEMBL document CHEMBL1152198.

This section presents compounds with their documented CC50 values.
test system: MT2; assay: Cytotoxicity against mock-infected human MT2 cells after 5 days by MTT assay; format: cell-based; settings: mt2, 120 h
Only the number, expressed in µM, is required.

stdin: What reported CC50 corresponds to `COc1ccc(OCC#N)c(CCNC(=S)Nc2ccc(Br)cn2)c1` on MT2?
stdout: 5.5

stdin: What reported CC50 corresponds to `C#CCCOc1ccc(OC)cc1CCNC(=S)Nc1ccc(Br)cn1` on MT2?
stdout: 1

stdin: What reported CC50 corresponds to `C=CCOc1ccc(OC)cc1CCNC(=S)Nc1ccc(Br)cn1` on MT2?
stdout: 11

stdin: What reported CC50 corresponds to `COc1ccc(OCCCO)c(CCNC(=S)Nc2ccc(Br)cn2)c1` on MT2?
stdout: 8.5

stdin: What reported CC50 corresponds to `COc1ccc(OC)c(CCNC(=S)Nc2ccc(Br)cn2)c1` on MT2?
stdout: 1

stdin: What reported CC50 corresponds to `COc1ccc(OCCOCc2ccccc2)c(CCNC(=S)Nc2ccc(Br)cn2)c1` on MT2?
stdout: 5.8

stdin: What reported CC50 corresponds to `COc1ccc(OCCCC#N)c(CCNC(=S)Nc2ccc(Br)cn2)c1` on MT2?
stdout: 3.8

stdin: What reported CC50 corresponds to `CCCOc1ccc(OC)cc1CCNC(=S)Nc1ccc(Br)cn1` on MT2?
stdout: 0.1

stdin: What reported CC50 corresponds to `C#CCOc1ccc(OC)cc1CCNC(=S)Nc1ccc(Br)cn1` on MT2?
stdout: 0.1

stdin: What reported CC50 corresponds to `COC(=O)COc1ccc(OC)cc1CCNC(=S)Nc1ccc(Br)cn1` on MT2?
stdout: 48

----------
experiment: Therapeutic index, ratio of CC50 for human MT2 cells to EC50 for HIV1 3B; assay type: cell-based; settings: read-out: Ratio CC50/EC50
quantity name: selectivity ratio
In your answer, state the number alone without any accompanying words.

>  <sample smiles>
C#CCOCCOCCOc1ccc(OC)cc1CCNC(=S)Nc1ccc(Br)cn1

>  <selectivity ratio>
17

$$$$
>  <sample smiles>
CCCOc1ccc(OC)cc1CCNC(=S)Nc1ccc(Br)cn1

>  <selectivity ratio>
1

$$$$
>  <sample smiles>
COc1ccc(OCCO)c(CCNC(=S)Nc2ccc(Br)cn2)c1

>  <selectivity ratio>
83

$$$$
>  <sample smiles>
COc1ccc(OCc2ccccc2)c(CCNC(=S)Nc2ccc(Br)cn2)c1

>  <selectivity ratio>
18

$$$$
>  <sample smiles>
C#CCCCOc1ccc(OC)cc1CCNC(=S)Nc1ccc(Br)cn1

>  <selectivity ratio>
40

$$$$
>  <sample smiles>
COC(=O)COc1ccc(OC)cc1CCNC(=S)Nc1ccc(Br)cn1

>  <selectivity ratio>
4

$$$$
>  <sample smiles>
COc1ccc(OCCCC#N)c(CCNC(=S)Nc2ccc(Br)cn2)c1

>  <selectivity ratio>
76

$$$$
>  <sample smiles>
COc1ccc(OCCOCc2ccccc2)c(CCNC(=S)Nc2ccc(Br)cn2)c1

>  <selectivity ratio>
3

$$$$
>  <sample smiles>
CC#CCOc1ccc(OC)cc1CCNC(=S)Nc1ccc(Br)cn1

>  <selectivity ratio>
74

$$$$
>  <sample smiles>
COc1ccc(OC)c(CCNC(=S)Nc2ccc(Br)cn2)c1

>  <selectivity ratio>
21

$$$$

Would you kindly look at the next entry?
stdin: // selectivity ratio lookup, key: `COc1ccc(OCC#N)c(CCNC(=S)Nc2ccc(Br)cn2)c1`
stdout: 46
